Target: IKZF2 (Homo sapiens (Human), UniProt Q96SW2+Q9UKS7)
Sequence (Q9UKS7 whole entry): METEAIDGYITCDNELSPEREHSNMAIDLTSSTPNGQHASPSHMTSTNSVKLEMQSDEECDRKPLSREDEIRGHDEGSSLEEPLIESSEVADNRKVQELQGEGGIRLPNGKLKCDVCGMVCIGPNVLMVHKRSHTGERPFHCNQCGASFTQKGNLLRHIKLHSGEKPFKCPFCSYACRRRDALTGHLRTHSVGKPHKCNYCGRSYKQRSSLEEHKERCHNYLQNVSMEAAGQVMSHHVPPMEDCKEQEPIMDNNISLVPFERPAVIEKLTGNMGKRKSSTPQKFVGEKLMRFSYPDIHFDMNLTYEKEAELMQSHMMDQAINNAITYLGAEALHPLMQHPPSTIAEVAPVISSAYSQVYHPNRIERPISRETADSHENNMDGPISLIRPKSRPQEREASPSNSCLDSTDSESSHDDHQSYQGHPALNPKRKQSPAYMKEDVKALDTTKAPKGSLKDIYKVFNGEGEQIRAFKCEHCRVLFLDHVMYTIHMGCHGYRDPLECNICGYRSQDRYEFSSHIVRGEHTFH
Sequence (Q96SW2 whole entry): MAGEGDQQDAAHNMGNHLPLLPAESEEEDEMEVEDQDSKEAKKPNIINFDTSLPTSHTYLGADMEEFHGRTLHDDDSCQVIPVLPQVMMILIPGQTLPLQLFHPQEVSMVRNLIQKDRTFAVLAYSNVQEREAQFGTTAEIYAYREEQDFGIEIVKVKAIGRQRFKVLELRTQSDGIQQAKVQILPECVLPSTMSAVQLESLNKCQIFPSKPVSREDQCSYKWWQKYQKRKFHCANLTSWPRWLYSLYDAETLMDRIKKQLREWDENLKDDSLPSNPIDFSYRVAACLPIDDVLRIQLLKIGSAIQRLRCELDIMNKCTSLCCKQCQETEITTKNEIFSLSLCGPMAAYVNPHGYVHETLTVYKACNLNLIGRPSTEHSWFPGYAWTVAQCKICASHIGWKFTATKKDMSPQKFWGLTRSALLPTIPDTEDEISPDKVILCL
Sequence (Q16531 whole entry partner): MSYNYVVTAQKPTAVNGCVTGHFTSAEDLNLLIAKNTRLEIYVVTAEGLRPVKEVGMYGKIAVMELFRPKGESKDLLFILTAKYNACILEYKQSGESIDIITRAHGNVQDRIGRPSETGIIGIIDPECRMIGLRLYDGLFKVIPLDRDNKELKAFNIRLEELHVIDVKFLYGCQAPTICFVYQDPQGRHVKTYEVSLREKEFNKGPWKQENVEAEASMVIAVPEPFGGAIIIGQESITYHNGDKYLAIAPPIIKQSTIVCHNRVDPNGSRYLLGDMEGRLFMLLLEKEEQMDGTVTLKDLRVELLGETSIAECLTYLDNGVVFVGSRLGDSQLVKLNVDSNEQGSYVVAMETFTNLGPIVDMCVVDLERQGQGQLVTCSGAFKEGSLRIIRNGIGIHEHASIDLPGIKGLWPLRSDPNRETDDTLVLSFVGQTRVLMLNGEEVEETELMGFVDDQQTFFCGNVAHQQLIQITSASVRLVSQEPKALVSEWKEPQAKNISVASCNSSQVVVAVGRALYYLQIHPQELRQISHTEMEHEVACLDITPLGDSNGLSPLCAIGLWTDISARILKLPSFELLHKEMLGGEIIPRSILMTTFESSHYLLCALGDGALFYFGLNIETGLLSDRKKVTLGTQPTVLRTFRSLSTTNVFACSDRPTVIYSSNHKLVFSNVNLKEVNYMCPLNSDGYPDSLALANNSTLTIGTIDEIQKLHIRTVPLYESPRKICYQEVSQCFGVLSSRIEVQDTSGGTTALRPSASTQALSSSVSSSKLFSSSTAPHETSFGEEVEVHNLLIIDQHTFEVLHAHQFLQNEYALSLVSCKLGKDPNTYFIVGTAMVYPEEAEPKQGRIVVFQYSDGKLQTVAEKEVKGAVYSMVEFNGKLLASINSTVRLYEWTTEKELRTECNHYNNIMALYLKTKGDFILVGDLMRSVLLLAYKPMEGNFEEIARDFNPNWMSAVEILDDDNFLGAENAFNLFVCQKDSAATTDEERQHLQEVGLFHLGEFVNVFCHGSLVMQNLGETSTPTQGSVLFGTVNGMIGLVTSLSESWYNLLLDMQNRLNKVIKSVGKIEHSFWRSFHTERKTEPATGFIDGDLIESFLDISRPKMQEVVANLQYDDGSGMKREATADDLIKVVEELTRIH
Experiment: IKZF2 HiBiT Assay (Jurkat-IKZF2-HiBiT cell line)
Type: cell-based
Conditions: Jurkat-IKZF2-HiBiT cells, 24 hours; read-out: HiBit assay degradation analysis Dmax
Can you tell me Dmax for the items I'm about to list?

Item under review: Cc1ccc(C(=O)Nc2cccc(CN3CCC4(CC3)OCc3c4ccc4c3CN(C3CCC(=O)NC3=O)C4=O)c2)cc1 (stereo not shown) . Reported Dmax? 60 to 80%

Item under review: O=C1CCC(N2Cc3c(ccc4c3OCC43CCN(Cc4nc(-c5ccccc5)cs4)CC3)C2=O)C(=O)N1 (stereo not shown) . Reported Dmax? < 40%

Item under review: O=C1CCC(N2Cc3c(ccc4c3OCC43CCN(Cc4cccc(-c5ccncc5)c4)CC3)C2=O)C(=O)N1 (stereo not shown) . Reported Dmax? 60 to 80%

Item under review: N#Cc1ccc(CN2CCC3(CC2)COc2c3ccc3c2CN(C2CCC(=O)NC2=O)C3=O)cc1Cl (stereo not shown) . Reported Dmax? 40 to 60%

Item under review: O=C1CCC(N2Cc3c(ccc4c3OCC43CCN(Cc4cnn(-c5ccc(F)cc5)c4)CC3)C2=O)C(=O)N1 (stereo not shown) . Reported Dmax? 40 to 60%

Item under review: CC(=O)Nc1cccc(CN2CCC3(CC2)COc2c3ccc3c2CN(C2CCC(=O)NC2=O)C3=O)c1 (stereo not shown) . Reported Dmax? 40 to 60%

Item under review: O=C1CCC(N2Cc3c(ccc4c3OCC43CCN(CC4CCCC(c5ccccc5)C4)CC3)C2=O)C(=O)N1 (stereo not shown) . Reported Dmax? 40 to 60%
